experiment: Acute toxicity study in mice
measurement conditions: both, Kunming, mouse, in vivo, po, single oral dose
property name: LD50 at 14 days (mg/kg)

{"smiles input": "COc1ccc2c(c1)[nH]c1c(C)nccc12", "property name": "LD50 at 14 days", "data value": 447}
